Origin of measurements: patent US20050196403A1

Biological target: HLA-B*5301 (Human)
Experiment: competition vs 125I probe, purified HLA
assay_endpoint: pIC50
// pIC50: -log10(molar conc.)

Tell me measured pIC50 for FPALNKMF [48.0055 FPALNKMF (p53.127.F1)] please.
5.21
